The values you see were collected from ChEMBL document CHEMBL5247597.

Tested on: MOLT-4
Assay: Antiproliferative activity against human MOLT-4 cells assessed as inhibition of cell growth measured after 72 hrs by CCK8 assay
Assay type: functional, cell-based
Conditions: MOLT-4, 72 h
Reported values of IC50 for individual entries
measureName: IC50

| molecule | measuredResult |
| --- | --- |
| COC(=O)C[C@](O)(CCCC(C)(C)O)C(=O)O[C@@H]1C(OC)=C[C@]23CCCN2CCc2cc4c(cc2[C@H]13)OCO4 [OMACETAXINE MEPESUCCINATE] | 7 nM |
| COC(=O)C[C@H](Cc1ccc(N)cc1)C(=O)O[C@@H]1C(OC)=C[C@]23CCCN2CCc2cc4c(cc2[C@H]13)OCO4 | 60 nM |

###

Tested on: HL-60
Experiment: Antiproliferative activity against human HL-60 cells assessed as inhibition of cell growth measured after 72 hrs by CCK8 assay
Type: functional, cell-based
Details: HL-60, 72 h
Reported values of IC50 for individual entries
measureName: IC50 (nM)

| compound | target | measureName | measuredResult |
| --- | --- | --- | --- |
| COC(=O)C[C@](O)(CCCC(C)(C)O)C(=O)O[C@@H]1C(OC)=C[C@]23CCCN2CCc2cc4c(cc2[C@H]13)OCO4 [OMACETAXINE MEPESUCCINATE] | HL-60 | IC50 | 13 |
| COC(=O)C[C@@H](Cc1cccs1)C(=O)O[C@@H]1C(OC)=C[C@]23CCCN2CCc2cc4c(cc2[C@H]13)OCO4 | HL-60 | IC50 | 246 |
| COC(=O)C[C@H](CCC(C)(C)C)C(=O)O[C@@H]1C(OC)=C[C@]23CCCN2CCc2cc4c(cc2[C@H]13)OCO4 | HL-60 | IC50 | 907 |
| CCOC(=O)C[C@H](Cc1ccc(O)cc1)C(=O)O[C@@H]1C(OC)=C[C@]23CCCN2CCc2cc4c(cc2[C@H]13)OCO4 | HL-60 | IC50 | 576 |
| COC(=O)C[C@H](Cc1cccc(O)c1)C(=O)O[C@@H]1C(OC)=C[C@]23CCCN2CCc2cc4c(cc2[C@H]13)OCO4 | HL-60 | IC50 | 184 |
| Cc1ccc(NC(=O)c2ccc(CN3CCN(C)CC3)cc2)cc1Nc1nccc(-c2cccnc2)n1 | HL-60 | IC50 | 28500 |
| CCOC(=O)C[C@H](Cc1ccc(OCc2ccccc2)cc1)C(=O)O[C@@H]1C(OC)=C[C@]23CCCN2CCc2cc4c(cc2[C@H]13)OCO4 | HL-60 | IC50 | 890 |
| COC(=O)C[C@H](Cc1ccc(N)cc1)C(=O)O[C@@H]1C(OC)=C[C@]23CCCN2CCc2cc4c(cc2[C@H]13)OCO4 | HL-60 | IC50 | 130 |
| COC(=O)C[C@H](C)C(=O)O[C@@H]1C(OC)=C[C@]23CCCN2CCc2cc4c(cc2[C@H]13)OCO4 | HL-60 | IC50 | 18000 |
| COC(=O)C[C@H](Cc1cccc(F)c1)C(=O)O[C@@H]1C(OC)=C[C@]23CCCN2CCc2cc4c(cc2[C@H]13)OCO4 | HL-60 | IC50 | 122 |
| COC(=O)C[C@H](Cc1ccc(OC(C)=O)cc1)C(=O)O[C@@H]1C(OC)=C[C@]23CCCN2CCc2cc4c(cc2[C@H]13)OCO4 | HL-60 | IC50 | 142 |

###

System: Huh-7
Experiment: Antiproliferative activity against human Huh-7 cells assessed as inhibition of cell growth measured after 72 hrs by CCK8 assay
Assay type: functional, cell-based
Conditions: Huh-7, 72 h
pIC50: −log10 of the molar value.

| compound | pIC50 |
| --- | --- |
| COC(=O)C[C@](O)(CCCC(C)(C)O)C(=O)O[C@@H]1C(OC)=C[C@]23CCCN2CCc2cc4c(cc2[C@H]13)OCO4 [OMACETAXINE MEPESUCCINATE] | 7.40 |
| COC(=O)C[C@H](Cc1ccc(N)cc1)C(=O)O[C@@H]1C(OC)=C[C@]23CCCN2CCc2cc4c(cc2[C@H]13)OCO4 | 6.67 |

###

Tested on: HL-60
Assay: Antiproliferative activity against human HL-60 cells assessed as inhibition of cell growth measured after 72 hrs by CCK8 assay
Assay type: functional, cell-based
Conditions: HL-60, 72 h
pIC50: −log10 of the molar value.

| compound | inequalityOperator | pIC50 |
| --- | --- | --- |
| COC(=O)C[C@H](Cc1ccc(O)cc1)C(=O)O[C@@H]1C(OC)=C[C@]23CCCN2CCc2cc4c(cc2[C@H]13)OCO4 | = | 6.82 |
| COC(=O)C[C@H](Cc1ccc(Br)cc1)C(=O)O[C@@H]1C(OC)=C[C@]23CCCN2CCc2cc4c(cc2[C@H]13)OCO4 | = | 6.15 |
| COC(=O)C[C@H](Cc1ccc2ccccc2c1)C(=O)O[C@@H]1C(OC)=C[C@]23CCCN2CCc2cc4c(cc2[C@H]13)OCO4 | = | 6.40 |
| COC(=O)C[C@H](Cc1ccc(NC(=O)OC(C)(C)C)cc1)C(=O)O[C@@H]1C(OC)=C[C@]23CCCN2CCc2cc4c(cc2[C@H]13)OCO4 | = | 6.81 |
| COC(=O)C[C@H](Cc1ccccc1O)C(=O)O[C@@H]1C(OC)=C[C@]23CCCN2CCc2cc4c(cc2[C@H]13)OCO4 | = | 6.14 |
| COC(=O)C[C@@H](Cc1ccccc1)C(=O)O[C@@H]1C(OC)=C[C@]23CCCN2CCc2cc4c(cc2[C@H]13)OCO4 | = | 6.26 |
| COC(=O)C[C@H](Cc1ccccc1OCc1ccccc1)C(=O)O[C@@H]1C(OC)=C[C@]23CCCN2CCc2cc4c(cc2[C@H]13)OCO4 | = | 6.24 |
| COC(=O)C[C@H](Cc1ccc(OCc2ccccc2)cc1)C(=O)O[C@@H]1C(OC)=C[C@]23CCCN2CCc2cc4c(cc2[C@H]13)OCO4 | = | 6.82 |
| COC(=O)C[C@H](Cc1cccc(Br)c1)C(=O)O[C@@H]1C(OC)=C[C@]23CCCN2CCc2cc4c(cc2[C@H]13)OCO4 | = | 6.63 |
| COC(=O)C[C@H](Cc1cccc(OCc2ccccc2)c1)C(=O)O[C@@H]1C(OC)=C[C@]23CCCN2CCc2cc4c(cc2[C@H]13)OCO4 | = | 6.69 |
| COC(=O)C[C@@H](Cc1ccc(F)cc1)C(=O)O[C@@H]1C(OC)=C[C@]23CCCN2CCc2cc4c(cc2[C@H]13)OCO4 | = | 6.22 |
| COC(=O)C[C@H](Cc1cccc(NC(=O)OC(C)(C)C)c1)C(=O)O[C@@H]1C(OC)=C[C@]23CCCN2CCc2cc4c(cc2[C@H]13)OCO4 | = | 6.70 |
| COC1=C[C@]23CCCN2CCc2cc4c(cc2[C@@H]3[C@@H]1O)OCO4 [CEPHALOTAXINE] | < | 4.52 |
| COC(=O)C[C@H](Cc1ccccc1Br)C(=O)O[C@@H]1C(OC)=C[C@]23CCCN2CCc2cc4c(cc2[C@H]13)OCO4 | = | 6.27 |

###

System: HL-60
Test: Antiproliferative activity against human HL-60 cells assessed as inhibition of cell growth measured after 72 hrs by CCK8 assay
Assay type: functional, cell-based
Settings: HL-60, 72 h
pIC50: −log10 of the molar value.
Reported values of pIC50 for individual entries
measureName: pIC50

| lineNotation | measureName | measuredResult |
| --- | --- | --- |
| COC(=O)C[C@H](Cc1ccccc1)C(=O)O[C@@H]1C(OC)=C[C@]23CCCN2CCc2cc4c(cc2[C@H]13)OCO4 | pIC50 | 6.81 |
| COC(=O)C[C@H](Cc1ccc(F)cc1)C(=O)O[C@@H]1C(OC)=C[C@]23CCCN2CCc2cc4c(cc2[C@H]13)OCO4 | pIC50 | 6.58 |
| Cc1nc(Nc2ncc(C(=O)Nc3c(C)cccc3Cl)s2)cc(N2CCN(CCO)CC2)n1 | pIC50 | 4.82 |
| COC(=O)C[C@H](Cc1cccc(N)c1)C(=O)O[C@@H]1C(OC)=C[C@]23CCCN2CCc2cc4c(cc2[C@H]13)OCO4 | pIC50 | 6.84 |

###

System: OCI-Ly3
Test: Antiproliferative activity against human OCILY3 cells assessed as inhibition of cell growth measured after 72 hrs by CCK8 assay
Format: functional, cell-based
Conditions: OCI-Ly3, 72 h
Reported values of IC50 for individual entries
measureName: IC50 (nM)

| compound | target | measuredResult |
| --- | --- | --- |
| COC(=O)C[C@](O)(CCCC(C)(C)O)C(=O)O[C@@H]1C(OC)=C[C@]23CCCN2CCc2cc4c(cc2[C@H]13)OCO4 [OMACETAXINE MEPESUCCINATE] | OCI-Ly3 | 5 |
| COC(=O)C[C@H](Cc1ccc(N)cc1)C(=O)O[C@@H]1C(OC)=C[C@]23CCCN2CCc2cc4c(cc2[C@H]13)OCO4 | OCI-Ly3 | 58 |
